# Assay Details: Caco-2 permeability assay
# Run Conditions: human, Caco-2
Measured Metric: efflux ratio at 10 μM
No unit in the answer, only the number.

Annotate the compound COC(=O)[C@@H](C)CS/C(=N\S(=O)(=O)c1ccc(C(F)(F)F)cc1)N1CC(c2ccccc2)C(c2ccc(Cl)cc2)=N1 (stereo partly shown) with its measured efflux ratio at 10 μM.
1.26

---

# Assay Details: in vitro
# Run Conditions: human, Caco-2
Measured Metric: Papp A→B at 10 μM (×10⁻⁶ cm/s)
Provide only the numeric value, understood in ×10⁻⁶ cm/s.

Query Papp A→B at 10 μM for COC(=O)[C@@H](C)CS/C(=N\S(=O)(=O)c1ccc(C(F)(F)F)cc1)N1CC(c2ccccc2)C(c2ccc(Cl)cc2)=N1 (stereo partly shown) [Compound 3A]
0.0096
